IC50: recorded values
- Target system: T1, recombinant human IL-6 (human, UniProt P05231 30-212, limits assumed)
- T1 construct: also called rhIL6; human recombinant IL-6
- Procedure details: competition ELISA, rhIL-6 in solution against captured IL-6
Dear colleague, please return just the value in nM, with no unit written.

Illustrative cases are given below, each with its answer.
Fill in reported IC50 for this entry: mAb 1192 (antibody, V domains shown) VH: QVTLKESGPTLVKPTQTLTLTCSFSGFSLSTSGVGVGWVRQPPGKALEWLAFIWWDDDKYYSPSLESRLTITKDTSKNQVVLTMTNMDPVDTATYYCARSYDDYLYYALDYWGQGTLVT VL: DIQMTQSPSSLSAFVGDGVTMTCWASQSINDYLNWYHQRPGEAPELLVFAASNLQIGVPSRFRGSGSETYFTLTINSLQPEDSGTYFCQNGHSFPLTFGGGTKLEI
0.029

Fill in reported IC50 for this entry: mAb 926 (antibody, human IgG1, kappa, V domains shown) VH: QVTLKESGPTLVKPTQTLTLTCSFSGFSLSTSGVGVGWVRQPPGKALEWLAFIFWDDDKYYSPSLESRLTITKDTSKNQVVLTMTNMDPVDTATYYCARSADDYLYYALDYWGQGTLVTVSS VL: DIQMTQSPSSLSAFVGDGVTMTCWASQSINDYLNWYHQRPGEAPELLVFAASNLQIGVPSRFRGSGSETYFTLTINSLQPEDSGTYFCQNGHSFPLTFGGGTKLEIKR
0.07

Fill in reported IC50 for this entry: mAb 1259 (antibody, V domains shown) VH: QVTLKESGPTLVKPTQTLTLTCSFSGFSLSTSGVGVGWVRQPPGKALEWLAFIWWDDDKYYSPSLESRLTITKDTSKNQVVLTMTNMDPVDTATYYCARSADDYLYYSFDTWGQGTLVT VL: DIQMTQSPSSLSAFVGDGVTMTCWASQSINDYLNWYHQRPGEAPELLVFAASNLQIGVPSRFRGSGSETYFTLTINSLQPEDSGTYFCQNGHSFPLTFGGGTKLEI
0.028

Fill in reported IC50 for this entry: mAb 189 (antibody, V domains shown) VH: QVTLKESGPALVKPTQTLTLTCTFSGFSLTTSGMCVSWIRQPPGKALEWLALIYWDDDKRYNPSLRSRLTITKDTSKNQVVLTMTNMDPVDTATYYCARSYDDYLYYALDYWGQGTLVT VL: DIQMTQSPSSLSAFVGDGVTMTCWASQSINDYLNWYHQRPGEAPELLVFAASNLQIGVPSRFRGSGSETYFTLTINSLQPEDSGTYFCQQTSSFPLTFGGGTKLE
0.72

Alright, here's another binder for you.
Fill in reported IC50 for this entry: mAb 242 (antibody, V domains shown) VH: QVTLKESGPTLVKPTQTLTLTCSFSGFSLSTSGVGVGWVRQPPGKALEWLAFIFWDDDKYYSPSLESRLTITKDTSKNQVVLTMTNMDPVDTATYYCARSYDDYLYYALDYWGQGTLVT VL: DIVMTQSPSSLSASVGDRVTITCRASQTISSYLNWYQQKPGKPPKLLIYAASSLESGVPSRFSGSGSGTEFTLTISSLQPEDLATYYCQQANSFPLTFGGGTKLE
2.2
